Attribution: paper PMC4166032

STUDY TARGET: GST-hPXR-LBD (Homo sapiens)
RUN DESCRIPTION: biochemical
EXPERIMENTAL CONTEXT: IC50 with 50 nM 20, 50 nM BODIPY FL vindoline (20) probe; 30 min
RESULT TYPE: IC50 (µM)
One number for each entry, in µM.

Note to self: IC50 recorded for C[C@@H]1C(=O)O[C@H]2C[C@@]34[C@H]5C[C@@H](C(C)(C)C)[C@]36[C@@H](OC(=O)[C@@H]6O)O[C@@]4(C(=O)O5)[C@]21O [ginkgolide A (8), ginkgolide A] was 20.7

* * *

STUDY TARGET: GST-hPXR-LBD (Homo sapiens)
Sequence (O75469 146-433 limits assumed): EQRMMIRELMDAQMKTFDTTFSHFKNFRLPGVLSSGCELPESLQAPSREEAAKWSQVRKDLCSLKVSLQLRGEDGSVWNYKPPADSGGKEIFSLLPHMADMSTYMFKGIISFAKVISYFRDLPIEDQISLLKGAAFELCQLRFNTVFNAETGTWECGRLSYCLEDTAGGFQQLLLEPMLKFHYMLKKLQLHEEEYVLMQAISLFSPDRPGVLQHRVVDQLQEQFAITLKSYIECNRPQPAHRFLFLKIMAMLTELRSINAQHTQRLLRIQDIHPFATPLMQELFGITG
RUN DESCRIPTION: biochemical
RESULT TYPE: pIC50
One number for each entry, as −log10 of the molar value.

Entry CCC12C=CCN3CC[C@@]4(c5ccc(OC)cc5N(C)[C@H]4[C@@](O)(C(=O)OC)[C@@H]1OC(C)=O)[C@@H]32 (stereo partly shown) under GST-hPXR-LBD (Homo sapiens) had pIC50 of 4.89

* * *

STUDY TARGET: GST-hPXR-LBD (Homo sapiens, UniProt O75469)
Sequence (O75469 146-433 limits assumed): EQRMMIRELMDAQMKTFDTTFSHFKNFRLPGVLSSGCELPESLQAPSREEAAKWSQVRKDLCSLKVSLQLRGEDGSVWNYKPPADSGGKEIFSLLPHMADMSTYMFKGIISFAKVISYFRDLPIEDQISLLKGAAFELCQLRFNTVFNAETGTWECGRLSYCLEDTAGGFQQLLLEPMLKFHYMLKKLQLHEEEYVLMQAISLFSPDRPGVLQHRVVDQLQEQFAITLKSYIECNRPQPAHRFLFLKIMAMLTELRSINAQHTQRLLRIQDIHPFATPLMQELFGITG
RUN DESCRIPTION: biochemical
EXPERIMENTAL CONTEXT: IC50 with 100 nM 20, 100 nM BODIPY FL vindoline (20) probe; laboratory assay buffer; 30 min; 1.1% DMSO
RESULT TYPE: pIC50
Give bare numbers, as −log10 of the molar value.

Note to self: pIC50 recorded for C[C@@H]1C(=O)O[C@H]2C[C@@]34[C@H]5C[C@@H](C(C)(C)C)[C@]36[C@@H](OC(=O)[C@@H]6O)O[C@@]4(C(=O)O5)[C@]21O [ginkgolide A (8), ginkgolide A] was 4.42

* * *

STUDY TARGET: GST-hPXR-LBD (Homo sapiens, UniProt O75469)
Sequence (O75469 146-433 limits assumed): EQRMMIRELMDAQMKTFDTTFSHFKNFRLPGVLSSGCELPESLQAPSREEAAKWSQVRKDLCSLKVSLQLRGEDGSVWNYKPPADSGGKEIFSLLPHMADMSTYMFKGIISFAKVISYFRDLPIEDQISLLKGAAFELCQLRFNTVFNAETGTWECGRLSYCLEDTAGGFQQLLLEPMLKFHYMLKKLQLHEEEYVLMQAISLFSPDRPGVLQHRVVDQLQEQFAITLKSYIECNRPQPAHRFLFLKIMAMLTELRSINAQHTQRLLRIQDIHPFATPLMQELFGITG
RESULT TYPE: Ki

Note to self: Ki recorded for CCC12C=CCN3CC[C@@]4(c5ccc(OC)cc5N(C)[C@H]4[C@@](O)(C(=O)OC)[C@@H]1OC(C)=O)[C@@H]32 (stereo partly shown) was 11.2 µM
